Values compiled from PubChem BioAssay (NCI).

What GI50 was measured for each of the following?
Tested on: SF-268 CNS
Test: NCI tumour cell line growth inhibition, 48 h

[ask] GI50 lookup needed for `CCCC(=O)Oc1ccc(/C(=C(\C)c2ccc(Cl)cc2)c2ccc(OCCN(CC)CC)cc2)cc1` , thanks.
[reply] 3.81 µM

[ask] Again, but for `C[C@H]1C[C@@H](n2c(Nc3ccc(OC(F)(F)F)cc3)nc3cc(CCC(=O)O)ccc32)CC(C)(C)C1`
[reply] 12.1 µM

[ask] Can you check `CNc1c2ccccc2nc2occ(Cl)c12` next?
[reply] 26.8 µM

[ask] What do you get for `CC(C)(C)OC(=O)N(CCCCN(CCCn1c2c(c3ccccc3c1=O)C(=O)c1ccccc1-2)C(=O)OC(C)(C)C)CCCn1c2c(c3ccccc3c1=O)C(=O)c1ccccc1-2` ?
[reply] 58.5 µM

[ask] Another molecule to check: N#CC1=C(N)NC(=O)C(C#N)C12Nc1ccccc1S2 (stereo not drawn)
[reply] > 100 µM

[ask] Also, `COc1ccc(-n2cc(-c3cc(OC)c(OC)c(OC)c3)nc2SCc2cccc(C#N)c2)cc1OC` please.
[reply] 95.8 µM

[ask] And `COC(=O)CNC(=O)C(=O)c1c(O)c(O)c(C(C)C)c2cc(C)c(-c3c(C)cc4c(C(C)C)c(O)c(O)c(C(=O)C(=O)NCC(=O)OC)c4c3O)c(O)c12` ?
[reply] 1.88 µM

[ask] Try the molecule `COc1ccc(-c2nc(NC(=O)CS(=O)(=O)c3ccc(F)cc3)sc2C)cc1`
[reply] 28.7 µM

====

System: NCI-H460 lung
Reply using exactly one outcome from 1 (yes) (active), 0 (no) (inactive)

[ask] Test call for this molecule, please: CCN1C(=O)N(CC)C2C1NN=c1s/c(=C3\C(=O)Nc4ccccc43)c(=O)n12 (centres undefined)
[reply] 1 (yes)

[ask] Now give it for `COc1ccc(-n2nc(C)c3c(Nc4ccc(NC(=O)Nc5cccc(C(F)(F)F)c5)cc4)ncnc32)cc1` too.
[reply] 0 (no)

[ask] Same question for `CC(C)(C)OC(=O)N(CCCCN(CCCn1c2c(c3ccccc3c1=O)C(=O)c1ccccc1-2)C(=O)OC(C)(C)C)CCCn1c2c(c3ccccc3c1=O)C(=O)c1ccccc1-2` please.
[reply] 0 (no)

[ask] Now the molecule `O=C(CCN1CCCC1)Nc1ccc2c(Nc3ccc(F)cc3)c3ccccc3nc2c1`
[reply] 1 (yes)

[ask] Same question, `CN[C@@H](C)C(=O)N[C@H](C(=O)N1CCC[C@H]1c1nc(C(=O)c2ccc(F)cc2)cs1)C1CCCCC1` this time
[reply] 0 (no)

[ask] Same for `O=C(CSSCC(=O)c1ccc(Cl)cc1)c1ccc(Cl)cc1`
[reply] 0 (no)

[ask] Would you kindly repeat that for `CCCC(=O)Oc1ccc(/C(=C(\C)c2ccc(Cl)cc2)c2ccc(OCCN(CC)CC)cc2)cc1` ?
[reply] 0 (no)

[ask] Query NC(CSC(c1ccccc1)(c1ccccc1)c1ccccc1)C(=O)O (centres undefined) next
[reply] 0 (no)

[ask] Now the same for `COc1ccc(CCN2CCCn3c2nc2ccccc2c3=O)cc1`
[reply] 1 (yes)

====

Tested on: SF-539 CNS
Assay: NCI tumour cell line growth inhibition, 48 h
I'd be grateful if you could share measured TGI for these entries.

[ask] Item `COC(=O)c1csc(-c2csc(CCNC(=O)OC(C)(C)C)n2)n1` with SF-539 CNS - TGI?
[reply] > 100 µM

[ask] Param item: `COc1ccc2nc3cc(Cl)ccc3c(Nc3ccccc3-c3ccccc3Nc3c4ccc(Cl)cc4nc4ccc(OC)cc34)c2c1`
[reply] > 67.2 µM

[ask] Item: CC(=O)C1=C(C)N(c2ccccc2)C2(O)C3=C(C(=O)c4ccccc4C3=O)C(O)=CC12Cl (stereo unspecified)
[reply] 15.6 µM

[ask] CC(C#N)(NO)C(C)(C#N)NO (stereo unspecified) , same question.
[reply] > 100 µM

[ask] Check `COc1cc(/C=C/C(=O)CC(=O)/C=C/c2cc(C)c(O)c(OC)c2)cc(C)c1O` too.
[reply] > 100 µM

[ask] Same lookup for `Cc1nc2c(Cl)cc(Cl)cc2c2c1CCO2` , please.
[reply] > 100 µM

[ask] Now this one: O=C(CC(C(=O)c1ccsc1)c1cccs1)c1ccccc1 (stereo unspecified)
[reply] > 100 µM

[ask] Same read-out for `O=S(=O)(F)Cc1ccccc1` ?
[reply] > 100 µM

[ask] Would you mind doing `Cc1cccc2c(=O)c3cccc([C@H](C)C(=O)O)c3oc12` as well?
[reply] > 100 µM

[ask] Repeat for the following compound: `O=C1c2ccccc2C(=O)N1c1ccc(Cc2ccc(N3C(=O)c4ccccc4C3=O)cc2)cc1`
[reply] > 100 µM

[ask] How about this compound: C=C1C(=O)OC2CC1C(OC(=O)/C=C/c1ccccc1)C/C(C)=C/CC/C(C)=C/CCC2(C)O (stereo unspecified)
[reply] 2.83 µM
